Cited source: the RNAGym collection of RNA variant scans (doi:10.7554/elife.80360)

B1: CPEB3 Ribozyme (parent)
chain: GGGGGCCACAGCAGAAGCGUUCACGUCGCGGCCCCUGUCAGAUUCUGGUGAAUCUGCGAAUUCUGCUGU

- Variants of: B1
- protocol_text: self-cleavage, relative activity (ratio to wild type); higher = more cleavage; co-transcriptional
readout_kind: self-cleavage
Form rule: numeric answer, no unit written next to it.

primary_sequence: GGGUGCCACAGCAGAAGCGUUCACGUCGCGGCCCCUGUCAUAUUCUGGUGAAUCUGCGAAUUCUGCUGU [G4U G41U]
result_number: 0.251
//
primary_sequence: GGGGACCACAGCAGAAGCGUUCACGUCGCGGCCCCUGUCAGAUUCUGGUGAAUCUGCGAAUUCUGCUGU [G5A]
result_number: 0.933
//
primary_sequence: GGGGGCCACAGCAGAAGCGUUCACGUCGCGGCCCCUGUCAGAUUGUGGUGAAUCUGCGAAUUCUGCUUU [C45G G68U]
result_number: 0.979

Q: For the variant GGGGGCCACAGCAGAAGCGUUCACGUCUCGGCCCCUGUCAGAUUCUGGUGAAUCGGCGAAUUCUGCUGU [G28U U55G] , give its measured self-cleavage value.
A: 0.168

Q: For the variant GUGGCCCACAGCAGAAGCGUUCACGUCGCGGCCCCUGUCAGAUUCUGGUGAAUCUGCGAAUUCUGCUGU [G2U G5C] , give its measured self-cleavage value.
A: 0.0693

Q: For the variant GAGGGCCACAGCAGGAGCGUUCACGUCGCGGCCCCUGUCAGAUUCUGGUGAAUCUGCGAAUUCUGCUGU [G2A A15G] , give its measured self-cleavage value.
A: 0.166

Q: For the variant GGGGGCCACAGCAGAAGCGUUCACGUCGCGGCCCCUGUCAGAUUCUGGUGAAUCUGCGAAUUCCGCUGA [U64C U69A] , give its measured self-cleavage value.
A: 0.972

Q: For the variant CGGGGCCACAGCAGAAGCGUUCACGUCGCGGCCCCUGUCAUAUUCUGGUGAAUCUGCGAAUUCUGCUGU [G1C G41U] , give its measured self-cleavage value.
A: 0.193
